meta.source: patent US20260242735A1

# experimentalSystem: human CD33 N237A (human, UniProt P20138 18-364)
# Sequence (P20138 18-364 N237A limits assumed): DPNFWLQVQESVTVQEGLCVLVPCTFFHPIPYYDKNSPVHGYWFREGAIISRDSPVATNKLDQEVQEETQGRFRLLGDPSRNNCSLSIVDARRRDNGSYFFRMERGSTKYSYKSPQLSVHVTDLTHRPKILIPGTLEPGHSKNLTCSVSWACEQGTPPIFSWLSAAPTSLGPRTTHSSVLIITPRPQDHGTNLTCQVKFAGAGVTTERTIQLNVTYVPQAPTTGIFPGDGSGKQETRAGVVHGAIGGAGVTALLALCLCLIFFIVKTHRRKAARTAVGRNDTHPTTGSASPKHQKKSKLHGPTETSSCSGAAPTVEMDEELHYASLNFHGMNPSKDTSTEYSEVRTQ
# protocolSummary: alanine scan, flow cytometry, HEK293-T;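 also: antibody binding to each alanine-substituted CD33 mutant expressed transiently in HEK293-T, read as fluorescence minus background, mean of duplicates, relative to wild-type CD33 set as 100%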
measurementType: Mean % WT Binding (%)
Form entry: value (%) — number only.

Which value of Mean % WT Binding has been reported for Refmab #1 (antibody, V domains shown, In the alanine scan antibodies were used as IgG or Fab; also called hP67.6) VH: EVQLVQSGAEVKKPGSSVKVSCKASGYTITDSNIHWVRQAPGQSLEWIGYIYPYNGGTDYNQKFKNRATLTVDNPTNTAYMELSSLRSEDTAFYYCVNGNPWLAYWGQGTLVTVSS VL: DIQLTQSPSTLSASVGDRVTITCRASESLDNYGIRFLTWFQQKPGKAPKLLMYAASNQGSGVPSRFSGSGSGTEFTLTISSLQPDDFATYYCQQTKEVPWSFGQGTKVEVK in the records?
98.7
